Reference source: patent US20220356255A1

system_under_test: T1, human PD-L1 on cells (human, UniProt Q9NZQ7 19-290)
T1 construct: Endogenous on MDA-MB-231 cells or transfected into HEK293FF cells (Sino Biological plasmid); the assay field says which; also called native PD-L1 on MDA-MB-231 cells; PD-L1 expressing MDA-MB-231 cells
protocol_notes: flow cytometry on MDA-MB-231 cells, pH 6.5
Consider the following binders; for each one, report its EC50.
Give bare numbers, in nM.

8B06 mAb (antibody, V domains shown, Formatted into an IgG1; also called 8B06 IgG1) VH: QVQLVQSGGGVVQPGRSLRLSCAASGFTFSSYGMYWVRQAPGKGLEWVAVISYDGSNKYYADSVKGRFTISRDNSKNTLNLQMNSLRAEDTAVYYCAKGALTHWGVVIGDGMDVWGQGTTVTVSS VL: NFMLTQPHSVSESPGKTVTISCRETELSRRLHYVRWYQQRPGSSPTTVIYEDDQRPSGVPDRFSGSIDSSSNSASLTISGLKTEDEADYYCQSFDSTNPWVFGGGTKLTVL	0.17

Fill in EC50 for each of the 4 binders listed.
1. 8A04 mAb (antibody, V domains shown, Formatted into an IgG1; also called 8A04 IgG1) VH: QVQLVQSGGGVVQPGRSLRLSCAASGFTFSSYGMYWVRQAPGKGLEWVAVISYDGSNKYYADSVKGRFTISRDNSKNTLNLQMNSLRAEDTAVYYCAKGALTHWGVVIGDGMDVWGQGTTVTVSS VL: NFMLTQPHSVSESPGKTVTISCMRTGTGNKGHYTRWYQQRPGSSPTTVIYEDDQRPSGVPDRFSGSIDSSSNSASLTISGLKTEDEADYYCQSFDSTNPWVFGGGTKLTVL
2. 8D04 mAb (antibody, V domains shown, Formatted into an IgG1; also called 8D04 IgG1) VH: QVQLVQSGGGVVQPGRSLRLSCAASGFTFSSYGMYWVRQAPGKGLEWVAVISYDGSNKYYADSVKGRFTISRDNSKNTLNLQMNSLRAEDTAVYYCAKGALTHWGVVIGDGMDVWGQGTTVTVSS VL: NFMLTQPHSVSESPGKTVTISCRGTGSSFHHKYVRWYQQRPGSSPTTVIYEDDQRPSGVPDRFSGSIDSSSNSASLTISGLKTEDEADYYCQSFDSTNPWVFGGGTKLTVL
3. 8D06 mAb (antibody, V domains shown, Formatted into an IgG1; also called 8D06 IgG1) VH: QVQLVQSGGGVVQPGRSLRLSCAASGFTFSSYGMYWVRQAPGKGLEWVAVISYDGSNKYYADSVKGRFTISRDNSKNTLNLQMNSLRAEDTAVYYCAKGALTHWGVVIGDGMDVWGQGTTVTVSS VL: NFMLTQPHSVSESPGKTVTISCVLSPRTHAGHYYRWYQQRPGSSPTTVIYEDDQRPSGVPDRFSGSIDSSSNSASLTISGLKTEDEADYYCQSFDSTNPWVFGGGTKLTVL
4. 8G08 mAb (antibody, V domains shown, Formatted into an IgG1; also called 8G08 IgG1) VH: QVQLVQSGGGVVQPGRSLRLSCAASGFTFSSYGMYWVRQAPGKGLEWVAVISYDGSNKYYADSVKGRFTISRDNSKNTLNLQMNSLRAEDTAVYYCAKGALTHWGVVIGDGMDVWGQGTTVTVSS VL: NFMLTQPHSVSESPGKTVTISCISNDVPASGHYHRWYQQRPGSSPTTVIYEDDQRPSGVPDRFSGSIDSSSNSASLTISGLKTEDEADYYCQSFDSTNPWVFGGGTKLTVL

[0.11, 0.13, 0.11, 0.07]
